- Tested on: Vero E6 infected with SARS-CoV-2
- procedure text: SARS-CoV-2 infection rate relative to infected DMSO; higher = more infection, active = 60 or less
- protocol conditions: 24 h
observation type: SARS-CoV-2 infection rate (%)
Please state the figure in %; there is no need to write the unit.

Which SARS-CoV-2 infection rate value is on record for CC(C)OC(=O)CNC(=O)[C@H](CS)NC(=O)CC[C@H](N)C(=O)O [glutathione-monoisopropyl-ester] (10 µM) ?
101

Which SARS-CoV-2 infection rate is reported for this compound? C1CCN2C[C@@H]3C[C@@H](CN4CCCC[C@@H]34)[C@H]2C1 [sparteine-sulfate] (10 µM)
112

Record request: SARS-CoV-2 infection rate value, item CN1CCC(CNc2ccc3ncc(-c4cccc(OC(F)(F)F)c4)n3n2)CC1 (0.833333 µM)
108

SARS-CoV-2 infection rate for Cc1cc(Cl)ccc1OCCCC(=O)NO [droxinostat] (10 µM) ?
90

I am curious: what SARS-CoV-2 infection rate value has been reported for O=C1CC[C@@](c2ccccc2)(C2CCN(Cc3ccc(I)cc3)CC2)C(=O)N1 [iododexetimide] (10 µM) ?
100

For the compound CN1CCN(c2ccc3[nH]c(-c4ccc5[nH]c(-c6ccc(O)cc6)nc5c4)nc3c2)CC1 [pibenzimol] (10 µM) , what SARS-CoV-2 infection rate is on record?
110

// query SARS-CoV-2 infection rate value for entry O=[N+]([O-])c1ccccc1S(=O)(=O)NCC1CCC(CNC[C@H]2CCc3ccccc3C2)CC1 (stereo not given in full) (0.833333 µM)
97.5

Which value of SARS-CoV-2 infection rate has been reported for CC(C)[N+](C)(CCC(C(N)=O)(c1ccccc1)c1ccccc1)C(C)C [isopropamide-iodide] (10 µM) in the records?
100

Look up SARS-CoV-2 infection rate for this compound: C[C@@H]1CC[C@@]2(OC1)O[C@H]1C[C@H]3[C@@H]4CC=C5C[C@@H](O)CC[C@]5(C)[C@H]4CC[C@]3(C)[C@H]1[C@@H]2C [diosgenin] (10 µM)
106

What value of measured SARS-CoV-2 infection rate is listed for CNC(=O)c1ccc2cc([C@@]3(O)CCn4cncc43)ccc2c1 [orteronel] (10 µM) ?
106
